Molecular target: Ae. aegypti NPYLR7 (Aedes aegypti, UniProt U5N1H5)
Sequence (U5N1H5 entry or part of it): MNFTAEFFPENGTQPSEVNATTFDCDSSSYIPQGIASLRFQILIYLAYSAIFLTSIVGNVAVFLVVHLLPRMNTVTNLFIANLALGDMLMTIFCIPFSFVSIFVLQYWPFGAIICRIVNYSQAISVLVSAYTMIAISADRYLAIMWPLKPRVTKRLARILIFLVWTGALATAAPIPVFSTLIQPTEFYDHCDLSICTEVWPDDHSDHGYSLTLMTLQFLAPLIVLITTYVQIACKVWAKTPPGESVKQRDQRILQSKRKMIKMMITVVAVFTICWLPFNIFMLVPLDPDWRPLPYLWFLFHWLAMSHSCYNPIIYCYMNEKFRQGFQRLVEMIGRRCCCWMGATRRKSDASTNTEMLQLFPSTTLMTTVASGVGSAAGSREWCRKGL
Test: In vitro calcium (GCaMP6s) FLIPR assay in HEK293T cells transfected with NPYLR7
Type: cell-based
Conditions: relative EC50, percent effect relative to 10 μM FMRFa3; read-out: EC50
Protocol: The in vitro screening assay was adapted from, and carried out at HD Biosciences (HDB, Shanghai) as follows: HEK293T (Thermo Fisher Scientific) cells were grown in Dulbecco’s modified Eagle medium (DMEM) (high glucose, with glutamine), 10% fetal bovine serum, 1% penicillin–streptomycin (Pen/Strep), seeded in a 75 cm^2 flask, and incubated at 37 °C and 5% CO2. […] Data were collected in raw fluorescence units (RFU). […]
MEASURED PARAMETER: EC50 (µM)
Respond with the bare value in µM.

query: // lookup EC50 for Cc1nc(NC(=N)N)nc2cc(OC3CCCc4ccccc43)ccc12 (stereo not shown)
result: 13.7

query: Queued: "CCOc1ccc(COc2ccc3c(C)nc(NC(=N)N)nc3c2)cc1"
result: 6.35

query: Could you do the same for "Cc1nc(NC(=N)N)nc2cc(OC(F)(F)F)ccc12" , please?
result: 3.38

query: Next compound up: COc1ccc2c(C)nc(NC(=N)N)nc2c1 [TDI-012631, reference compound]
result: 4.11

====

Molecular target: Ae. aegypti NPYLR7 (Aedes aegypti)
Test: In vitro calcium (GCaMP6s) FLIPR assay in HEK293T cells transfected with NPYLR7
Assay type: cell-based
Settings: relative EC50, percent effect relative to 10 μM FMRFa3; read-out: EC50
Below, each of the compounds is paired with its reported pEC50 value.
Reminder that pEC50 means the negative base-10 logarithm of the concentration expressed in mol/L.

Solved entries (count: 2):
{"columns": ["ENTRY SMILES", "ASSAYED TARGET", "NUMBER"],
 "data": [
  ["Cc1nc(NC(=N)N)nc2cc(OCc3ccc(OC(F)(F)F)cc3)ccc12", "Ae. aegypti NPYLR7 (Aedes aegypti)", 4.71],
  ["Cc1nc(NC(=N)N)nc2cc(OCc3ccc(S(C)(=O)=O)cc3)ccc12", "Ae. aegypti NPYLR7 (Aedes aegypti)", 6.65]
]}

Now let's try a different one.
query: Record request: pEC50 value, item "CCCOc1ccc2c(C)nc(NC(=N)N)nc2c1"
result: 5.65
